biological target: GRIP2_7, Q9C0E4; test: holdup assay; parameters: key: below the threshold = too weak to quantify, mostly under pKd 3.1 to 4; conditions: plain residues with an end cap or a label only (N-terminal biotin on a linker: ado-ado)
Sequence (Q9C0E4 934-1023): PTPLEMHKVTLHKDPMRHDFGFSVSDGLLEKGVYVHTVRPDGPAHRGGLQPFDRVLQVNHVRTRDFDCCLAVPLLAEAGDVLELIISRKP
property.measured: pKd

INSERT INTO results (binder, assay_value) VALUES
  ('SAGADSETHC [SLCO1B1, Q9Y6L6]', 'below the threshold'),
  ('EAVTVESTSL [SLC22A11, Q9NSA0]', 'below the threshold'),
  ('NISARRFTLC [FAM167B, Q9BTA0]', 3.81),
  ('QQGLLPHSSC [TYRO3, Q06418]', 'below the threshold'),
  ('GTMFLRETSL [GUCY1A2, P33402]', 3.84),
  ('KEKASTETEC [TRPM1, Q7Z4N2]', 'below the threshold'),
  ('NTALVESEDL [PALLS, Q8WX93;Q8WX93-1]', 'below the threshold'),
  ('QKNKDREYYV [NRXN3, Q9HDB5]', 4.89),
  ('GQNMTVSVVI [PRLHR, P49683]', 'below the threshold'),
  ('NSTHNLKDYV [CLDN20, P56880]', 'below the threshold'),
  ('YAEKRMLTEV [KCNA6, P17658]', 'below the threshold'),
  ('PALKNGQYWV [CSPG4, Q6UVK1]', 5.83),
  ('IKLETKKTKL [SLC15A2, Q16348]', 'below the threshold'),
  ('DLLGGGSDSI [TNRC6B, Q9UPQ9]', 'below the threshold'),
  ('MLPANYVEAI [NEB, P20929]', 'below the threshold'),
  ('PSVYSRSQYV [CLDN8, P56748]', 3.51);
